# credit: PubChem BioAssay

# Protocol Summary: basal RPMI8226 mitochondrial membrane potential changes, profiling panel, cell-based, JC-1 fluorescence, 24 h, 100 nL compound (AID 1169); note: test concentration not given here
# Cond: RPMI8226 myeloma, JC-1 mitochondrial potential fluorescence, higher = more signal
Kindly return Criterion met if reported z-score is no lower than -0.6; return Criterion not met if it is lower.

Answered examples (8):
C=C(CCCC)C(=O)CC[C@H](OC(=O)c1ccccc1-c1ccccc1C(=O)O)c1cccc(OCCO)c1 = Criterion met
CC(C)c1ccc(NN2C(C(O)C(C)c3ccccc3)C=CC3C(=O)N(c4ccccc4)C(=O)C32)cc1 (stereo not drawn) = Criterion not met
CC(C)C[C@@H]1NC(=O)[C@H]2C[C@@H](C(=O)O)[C@@H](c3cccc(OCCO)c3)N2C1=O = Criterion met
Cc1ccc(S[C@]2(C(=O)NC(C)C)CC(=O)N(Cc3ccccc3)[C@@H]2c2ccc(CO)cc2)cc1 = Criterion met
CC(C)c1ccc(NN2C(C(O)C3=C[C@H]4C[C@@H](C3)C4(C)C)C=CC3C(=O)N(c4ccccc4)C(=O)C32)cc1 (stereo partly drawn) = Criterion met
CC(C)C[C@@H]1NC(=O)[C@@H]2C[C@H](C(=O)NCCCCCNC(=O)CS)[C@H](c3ccc(O)cc3)N2C1=O = Criterion met
O=C(N1CCOCC1)[C@]1(CCS(=O)(=O)c2ccccc2)N=C(c2ccc(OCCCO)cc2)O[C@@H]1c1ccccc1 = Criterion met
C[C@H]1C2[C@H](Cc3ccccc3)NC(=O)[C@]23C(=O)N[C@@H](Cc2ccccc2)C(=O)N2CCC[C@H]2C(=O)NC/C=C/CC/C=C/C3[C@@H]2O[C@]12C (stereo partly drawn) = Criterion met

Problem: Given the entry O=C1O[C@@H](c2ccccc2)[C@@H](c2ccccc2)N2[C@@H](c3ccc(OCCO)cc3)[C@]3(C(=O)Nc4ccc(C#CC5=CCCCC5)cc43)[C@@H](C(=O)Nc3nc4ccccc4s3)[C@H]12 , answer whether its z-score meets or surpasses -0.6.
Result: Criterion not met

Problem: Query C=CCOC(=O)[C@@H]1[C@H]2C(=O)O[C@H](c3ccccc3)[C@H](c3ccccc3)N2[C@H](c2ccc(OCCOC(=O)[C@@H]3C[C@@H]4C(=O)N[C@@H](CC(C)C)C(=O)N4[C@@H]3c3ccc(O)cc3)cc2)[C@@]12C(=O)Nc1ccc(I)cc12 next
Result: Criterion met

Problem: Could you do the same for C=CC[C@]12N=C(c3ccc(OCCCO)cc3)O[C@H]1c1ccccc1N(CCC)C2=O , please?
Result: Criterion not met

Problem: One more compound: COCCOC(=O)N1C(=O)[C@@]2(c3cc(C#CCC(C(=O)OC)C(=O)OC)ccc31)[C@H](C(=O)N1CCc3cc(OC)c(OC)cc3C1)[C@H]1C(=O)O[C@H](c3ccccc3)[C@H](c3ccccc3)N1[C@@H]2c1ccccc1OCCO
Result: Criterion not met

Problem: What do we get for COC(=O)c1c2oc(c1C(=O)OC)C(=O)N[C@H](Cc1ccccc1)Cn1cc(nn1)C1(CCCCC1)NC(=O)N[C@H](CO)CC2 ?
Result: Criterion not met

====

Items are presented alongside their recorded z-score.
# Protocol Summary: FRG1 promoter luciferase signal modulators, primary screen, FRG1 inhibition for FSHD, cell-based, C2C12 myotubes, firefly/Renilla luciferase, luminescence (AID 1084)
# Cond: higher = more signal, called active from +8 up or from −8 down
// return a plain number; no unit text

Recorded z-score, per entry:
CCOC(=O)C1=CCC(c2cccn2C(=O)OC(C)(C)C)N(S(=O)(=O)c2ccc(C)cc2)C1 (centres undefined) = -2.99
COCCCNC(=O)[C@@]1(CCC(=O)OC(C)(C)C)N=C(c2ccc(OCCCO)cc2)O[C@H]1c1ccccc1 = -1.79
COC(=O)[C@@]1(Cc2ccccc2)[C@H]2c3cc(C(=O)N(C)C)n(Cc4ccc(Cl)c(C(F)(F)F)c4)c3C[C@H]2CN1C(=O)c1ccccc1 = -3.33
CN1C(=O)C2C=CC(C(O)COCc3ccccc3)N(Nc3ccc([N+](=O)[O-])cc3[N+](=O)[O-])C2C1=O (centres undefined) = 1.16
Cc1ccc(S[C@]2(C(=O)NCc3ccccc3)CC(=O)N(Cc3ccccc3C(F)(F)F)[C@@H]2c2ccc(CO)cc2I)cc1 = -0.701
C=CCOC(=O)[C@H]1[C@@H]2C(=O)O[C@@H](c3ccccc3)[C@@H](c3ccccc3)N2[C@@H](c2ccc(OCCOC(=O)[C@H]3C[C@H]4C(=O)NCC(=O)N4[C@H]3c3cccc(OCCO)c3)cc2)[C@]12C(=O)Nc1ccc(I)cc12 = -0.18
[N-]=[N+]=NCc1ccccc1[C@H]1OC(c2ccc(OCCCO)cc2)=N[C@@]1(Cc1ccccc1N=[N+]=[N-])C(=O)N1CCOCC1 = -1.31
COC(=O)[C@H](Cc1ccccc1)N1CC(C)(OC)O[C@@H](Cc2ccccc2)[C@H]1/C=C/C1CC1 (some centres undefined) = -0.218

Problem: Given C=C(COC)C(=O)CC[C@H](OC(C)=O)c1ccc(CO)o1 , state its recorded z-score.
Result: -0.28

Problem: Thanks! And Cc1ccc(S[C@]2(C(=O)NC3CC3)CC(=O)N(C3Cc4ccccc4C3)[C@@H]2c2ccc(CO)cc2I)cc1 ?
Result: -2.24

Problem: Further, for COC(=O)[C@@]1(Cc2ccccc2)[C@H]2c3cc(C(=O)N(C)C)n(CCF)c3C[C@H]2CN1C(=O)c1ccccc1 ?
Result: 1.52

Problem: Lookup COCCOC(=O)N1C(=O)[C@@]2(c3cc(C#CCNC(N)=O)ccc31)[C@H](c1ccccc1OCCO)N1[C@H](c3ccccc3)[C@H](c3ccccc3)OC(=O)[C@H]1[C@@H]2C(=O)N1CCCCCCC1
Result: 0.515

Problem: Request: CN1C(=O)C2C=CC(C(O)c3ccc([N+](=O)[O-])cc3)N(Nc3ccccc3)C2C1=O (centres undefined)
Result: -0.439

Problem: Next record, please: CC1CC/C=C\[C@H]2OC34C=CCN(CCN5CCOCC5)C(=O)[C@H]3N(C(CO)C(C)C)C(=O)[C@@H]4C2C(=O)O1 (some centres undefined)
Result: -0.363

Problem: Also COC(=O)[C@@]1(Cc2ccc(F)cc2)[C@@H]2C(=CC(=O)[C@H]2CC(=O)C(=O)N2CCCC2)CN1C(=O)c1ccccc1 ?
Result: 1.48

Problem: Entry to check: Cc1ccc(N2C(=O)c3ccccc3[C@@H](C(=O)NCCN3CCOCC3)[C@@H]2c2ccc(CO)cc2)nc1
Result: 0.169

Problem: Same for [N-]=[N+]=Nc1ccccc1C[C@]1(C(N)=O)COC(c2ccc(OCCCO)cc2)=N1
Result: 3.48
